B1: library; a variant is named by its letters at N, in order (parent)
chain: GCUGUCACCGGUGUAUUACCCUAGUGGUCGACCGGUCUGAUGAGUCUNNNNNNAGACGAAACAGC

Variants of: B1
Test: normalized RNA/DNA level with ligand (relative to sTRSVctl = 100) (log10 (% of sTRSVctl)); ligand: hypoxanthine (xanthine aptamer); higher = less ribozyme self-cleavage, higher mRNA level
Settings: ligand concentration (+) RNA-Seq: 5 mM, HEK293T, reporter: mCherry (pCS4076), ligand present: yes
readout: normalized RNA/DNA level with ligand (log10)

{"mutant.code": "UCAUAU", "test.value": 1.88}
{"mutant.code": "CAAGCG", "test.value": 1.94}
{"mutant.code": "AGGCUG", "test.value": 2}
{"mutant.code": "UAGAGC", "test.value": 1.91}
{"mutant.code": "CACCAU", "test.value": 1.92}
{"mutant.code": "UUUCUG", "test.value": 1.94}
{"mutant.code": "AAACAC", "test.value": 1.89}
{"mutant.code": "GACCGC", "test.value": 1.89}
{"mutant.code": "AGACUG", "test.value": 1.89}
{"mutant.code": "AUGUUG", "test.value": 1.85}
{"mutant.code": "CUAAAU", "test.value": 1.88}
{"mutant.code": "CAACCA", "test.value": 1.95}
{"mutant.code": "AGUACA", "test.value": 1.87}
{"mutant.code": "GGGUUA", "test.value": 1.99}
{"mutant.code": "CCAUCG", "test.value": 1.91}
{"mutant.code": "CAUCAC", "test.value": 1.96}
{"mutant.code": "GACCUA", "test.value": 1.94}
{"mutant.code": "AGCCUC", "test.value": 2.01}
{"mutant.code": "ACAGCC", "test.value": 1.97}
{"mutant.code": "ACUAAG", "test.value": 1.83}
{"mutant.code": "UAAGUG", "test.value": 1.89}
{"mutant.code": "GUACAU", "test.value": 1.9}
{"mutant.code": "AUGCAA", "test.value": 1.87}
{"mutant.code": "CAACUC", "test.value": 1.97}
{"mutant.code": "GAGUUU", "test.value": 1.92}
{"mutant.code": "CCUUUC", "test.value": 2}
{"mutant.code": "UCCUAG", "test.value": 1.91}
{"mutant.code": "UAGCGA", "test.value": 1.89}
{"mutant.code": "UAUUAA", "test.value": 1.89}
{"mutant.code": "AGCGUU", "test.value": 1.93}
{"mutant.code": "CUUCGC", "test.value": 1.95}
{"mutant.code": "CUAGCG", "test.value": 1.91}
{"mutant.code": "CGGCUU", "test.value": 2.05}
{"mutant.code": "UGCACC", "test.value": 1.92}
{"mutant.code": "GGUGGU", "test.value": 1.96}
{"mutant.code": "UCUGCU", "test.value": 1.97}
{"mutant.code": "AGAUAC", "test.value": 1.91}
{"mutant.code": "GUAUCG", "test.value": 1.9}
{"mutant.code": "UUGGAU", "test.value": 2}
{"mutant.code": "UUGCGU", "test.value": 1.97}
{"mutant.code": "UGCUGA", "test.value": 1.92}
{"mutant.code": "UUUGUG", "test.value": 1.95}
{"mutant.code": "CCGUUU", "test.value": 1.95}
{"mutant.code": "GCUACA", "test.value": 1.95}
{"mutant.code": "GGUCGC", "test.value": 1.97}
{"mutant.code": "CGAUGG", "test.value": 1.89}
{"mutant.code": "GGGCGG", "test.value": 1.93}
{"mutant.code": "AAAUGG", "test.value": 1.78}
{"mutant.code": "UUUUGC", "test.value": 1.94}
{"mutant.code": "UGAUUG", "test.value": 1.97}
{"mutant.code": "GACGAU", "test.value": 1.91}
{"mutant.code": "UAUAGC", "test.value": 1.95}
{"mutant.code": "ACUGUG", "test.value": 1.85}
{"mutant.code": "AUAAAU", "test.value": 1.9}
{"mutant.code": "UGUGUC", "test.value": 1.98}
{"mutant.code": "UGGGGU", "test.value": 1.91}
{"mutant.code": "AAGAGA", "test.value": 1.8}
{"mutant.code": "UUGGGU", "test.value": 2.01}
{"mutant.code": "UGUAGG", "test.value": 1.9}
{"mutant.code": "ACAACG", "test.value": 1.89}
{"mutant.code": "ACAAUU", "test.value": 1.94}
{"mutant.code": "AAGCCA", "test.value": 1.94}
{"mutant.code": "GUGUAC", "test.value": 1.92}
{"mutant.code": "UUGGGC", "test.value": 2.05}
{"mutant.code": "UGAGUC", "test.value": 1.99}
{"mutant.code": "GGACCG", "test.value": 1.97}
{"mutant.code": "GCUCAC", "test.value": 1.94}
{"mutant.code": "CGCGUG", "test.value": 1.97}
{"mutant.code": "GUAUGA", "test.value": 1.89}
{"mutant.code": "UUGGUG", "test.value": 2.01}
{"mutant.code": "CUGGCU", "test.value": 1.96}
{"mutant.code": "UAUUUC", "test.value": 1.97}
{"mutant.code": "UGCGUA", "test.value": 1.92}
{"mutant.code": "GUUAUG", "test.value": 1.87}
{"mutant.code": "UAUGGC", "test.value": 1.92}
{"mutant.code": "CUAAGG", "test.value": 1.91}
{"mutant.code": "UACCUC", "test.value": 1.99}
{"mutant.code": "AGUACU", "test.value": 1.9}
{"mutant.code": "CGCGCG", "test.value": 1.95}
{"mutant.code": "AGCUAC", "test.value": 1.96}
{"mutant.code": "CGCGGC", "test.value": 1.99}
{"mutant.code": "ACGCGG", "test.value": 1.64}
{"mutant.code": "CCCCGC", "test.value": 1.99}
{"mutant.code": "GAGGUG", "test.value": 1.78}
{"mutant.code": "UCACCA", "test.value": 1.93}
